# assayed-target: 5HT1A receptors (Rattus norvegicus, UniProt P19327)
# Sequence (P19327 1-422): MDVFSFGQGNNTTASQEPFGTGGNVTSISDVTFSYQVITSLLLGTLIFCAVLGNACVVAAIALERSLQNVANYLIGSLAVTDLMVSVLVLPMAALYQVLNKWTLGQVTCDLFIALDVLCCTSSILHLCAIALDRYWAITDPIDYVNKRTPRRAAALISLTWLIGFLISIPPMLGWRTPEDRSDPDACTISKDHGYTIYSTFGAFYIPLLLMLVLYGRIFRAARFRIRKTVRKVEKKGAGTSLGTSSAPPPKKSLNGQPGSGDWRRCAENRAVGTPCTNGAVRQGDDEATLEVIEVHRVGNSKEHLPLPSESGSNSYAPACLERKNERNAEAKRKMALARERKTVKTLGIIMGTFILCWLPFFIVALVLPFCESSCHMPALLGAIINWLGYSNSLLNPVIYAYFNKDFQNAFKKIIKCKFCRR
# test-name: In vitro binding test, 5HT1A receptors ([3H]-8-OH-DPAT, hippocampus membranes)
# Design: The hippocampus of the brains of decapitated rats was immediately frozen; from tissue; host or cells: hippocampus membranes of male Wistar rats; species or system rat (male Wistar)
# run-conditions: rat hippocampus; [3H]-8-OH-DPAT 0.4 nM; 30 min at 25° C; read-out: AFFINITY (pKi) (converted)
measured-attribute: Ki (nM)

Recorded Ki, per entry:
> print(dat)
                                   compound                            assayed.target  measured.attribute  endpoint.unit  observed.result
1  c1cc2c(c(N3CCN(CCc4cccc5ccccc45)CC3)c1)OCCO2  5HT1A receptors (Rattus norvegicus, UniProt P19327)                  Ki             nM             1.29
2    c1cc2c(c(N3CCN(CCCc4ccsc4)CC3)c1)OCCO2  5HT1A receptors (Rattus norvegicus, UniProt P19327)                  Ki             nM             1.74
3     c1ccc(CCCN2CCN(c3cccc4c3OCCO4)CC2)cc1  5HT1A receptors (Rattus norvegicus, UniProt P19327)                  Ki             nM              1.7

[P] c1cc2c(c(N3CCN(CC4Cc5ccsc5C4)CC3)c1)OCCO2 (racemic)
[Q] c1cc2c(c(N3CCN(CCc4ccc5ccccc5c4)CC3)c1)OCCO2
[R] c1cc2c(c(N3CCN(CCCCc4ccsc4)CC3)c1)OCCO2
Put these in order: smallest Ki first, largest last. Please list the labels according to the requested order.
R, Q, P
(R: 0.38 nM, Q: 1.02 nM, P: 1.7 nM)
